- Tested on: maximal electroshock (MES) induced seizures
- ASSAY_EXPLANATION: Maximal electroshock (MES) test
- Assay type: in vivo, mice
- RECORDED_CONDITIONS: Mus musculus, ip; 100 mg/kg i.p., mice, 1 h; read-out: MES model, protected mice/total mice, 1 h (converted)
VALUE_KIND: responders at 100 mg/kg (%)
Give bare numbers, in %.

>>> df
                                   molecule               value_kind  unit_of_measurement  measured_number
0  COc1cc(/C=C/C(=O)N2CCN(C(=O)CCC(=O)N3CCN(c4ccccc4)CC3)CC2)cc(OC)c1OC [B11]  responders at 100 mg/kg                    %               50
1  C/C=C/c1ccc(OC(=O)CCCN2CCN(C(=O)/C=C/c3cc(OC)c(OC)c(OC)c3)CC2)c(OC)c1 [A3]  responders at 100 mg/kg                    %               75
2  COc1cc(/C=C/C(=O)N2CCN(CCCC(=O)N3CCC(c4noc5cc(F)ccc45)CC3)CC2)cc(OC)c1OC [A17]  responders at 100 mg/kg                    %               50
3  COc1cc(/C=C/C(=O)N2CCN(CCCC(=O)N3CCN(c4cccc(Cl)c4)CC3)CC2)cc(OC)c1OC [A13]  responders at 100 mg/kg                    %               25
4  COc1cc(/C=C/C(=O)N2CCN(CCCC(=O)N3CCN(c4ccccc4)CC3)CC2)cc(OC)c1OC [A11]  responders at 100 mg/kg                    %               25

Below is a list of molecules. For each, state its recorded responders at 100 mg/kg.
1. COc1cc(/C=C/C(=O)N2CCN(C(=O)CCC(=O)N3CCN(C(c4ccccc4)c4ccccc4)CC3)CC2)cc(OC)c1OC [B8]
2. COc1cc(/C=C/C(=O)N2CCN(CCCC(=O)N3CCN(c4ncccn4)CC3)CC2)cc(OC)c1OC [A16]
3. COc1cc(/C=C/C(=O)N2CCN(C(=O)CCC(=O)N3CCN(c4nsc5ccccc45)CC3)CC2)cc(OC)c1OC [B10]
4. COc1cc(/C=C/C(=O)N2CCN(C(=O)CCC(=O)O[C@H]3C[C@H]4CC[C@]3(C)C4(C)C)CC2)cc(OC)c1OC [B7]
5. COc1cc(/C=C/C(=O)N2CCN(C(=O)CCC(=O)O)CC2)cc(OC)c1OC [B1]
6. C=CCc1ccc(OC(=O)CCCN2CCN(C(=O)/C=C/c3cc(OC)c(OC)c(OC)c3)CC2)c(OC)c1 [A2]
7. COc1cc(/C=C/C(=O)N2CCN(C(=O)CCC(=O)N3CCC(c4noc5cc(F)ccc45)CC3)CC2)cc(OC)c1OC [B17]
8. COc1cc(/C=C/C(=O)N2CCN(C(=O)CCC(=O)N3CCN(c4cccc(Cl)c4Cl)CC3)CC2)cc(OC)c1OC [B12]

Ans:
1. 75
2. 75
3. 75
4. 50
5. 25
6. 50
7. 50
8. 75

Provide responders at 100 mg/kg for all items below, preserving their order.
1. COc1cc(/C=C/C(=O)N2CCN(CCCC(=O)N3CCN(c4ccc(C(F)(F)F)cc4)CC3)CC2)cc(OC)c1OC [A14]
2. C=CCc1ccccc1OC(=O)CCC(=O)N1CCN(C(=O)/C=C/c2cc(OC)c(OC)c(OC)c2)CC1 [B4]

Ans:
[100, 50]

Q: For the molecule shown here, COc1cc(/C=C/C(=O)N2CCN(CCCC(=O)N3CCN(C(c4ccc(F)cc4)c4ccc(F)cc4)CC3)CC2)cc(OC)c1OC [A9] , give the reported responders at 100 mg/kg.
Ans: 75
